Parameter: kinase still bound, per cent of control. Scope: all listed entries.
- assayedTarget: ANKK1 (human) (UniProt Q8NFD2)
- Sequence (Q8NFD2 whole entry, looked up): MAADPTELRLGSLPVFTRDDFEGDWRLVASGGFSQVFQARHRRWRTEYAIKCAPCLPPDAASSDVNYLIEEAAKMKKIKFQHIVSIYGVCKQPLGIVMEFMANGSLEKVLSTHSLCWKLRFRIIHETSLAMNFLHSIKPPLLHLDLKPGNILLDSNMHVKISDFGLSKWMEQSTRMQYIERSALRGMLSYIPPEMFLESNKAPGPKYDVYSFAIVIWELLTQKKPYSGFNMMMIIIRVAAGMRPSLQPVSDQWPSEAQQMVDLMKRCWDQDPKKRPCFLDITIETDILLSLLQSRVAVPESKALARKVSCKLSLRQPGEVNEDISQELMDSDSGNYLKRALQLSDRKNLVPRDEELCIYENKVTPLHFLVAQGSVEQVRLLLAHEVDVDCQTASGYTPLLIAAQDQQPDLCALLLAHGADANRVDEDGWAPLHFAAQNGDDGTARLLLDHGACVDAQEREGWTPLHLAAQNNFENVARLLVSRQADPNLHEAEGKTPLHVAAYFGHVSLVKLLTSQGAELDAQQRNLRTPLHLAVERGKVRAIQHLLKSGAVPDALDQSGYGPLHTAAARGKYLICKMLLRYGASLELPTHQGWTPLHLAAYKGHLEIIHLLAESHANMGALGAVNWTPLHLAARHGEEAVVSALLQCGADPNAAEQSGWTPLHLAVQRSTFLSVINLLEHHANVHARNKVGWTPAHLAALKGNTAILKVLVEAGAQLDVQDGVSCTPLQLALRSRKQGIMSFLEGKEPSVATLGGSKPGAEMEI
- protocolText: KINOMEscan competition binding
- appliedConditions: compound 1.0 µM
Express the result in % but write the number alone.

Cc1cc(NC(=O)c2cccc(NC(=O)/C=C/CN(C)C)c2)ccc1Nc1nccc(-c2cccnc2)n1	75
CN(C)C/C=C/C(=O)Nc1cccc(C(=O)Nc2ccc(Nc3nccc(/C(C#N)=C4\Nc5ccccc5S4)n3)cc2)c1	100
CN(C)C/C=C/C(=O)Nc1cccc(C(=O)Nc2ccc(Nc3nccc(-c4cccnc4)n3)cc2)c1	50

Entry under review: `CN(C)C/C=C/C(=O)Nc1cccc(C(=O)Nc2ccc(Nc3nccc(-c4c(-c5ccccc5)nn5ccccc45)n3)cc2)c1` . Reported kinase still bound, per cent of control?
73

###

Parameter: kinase still bound, per cent of control. Scope: all listed entries.
- assayedTarget: PIP4K2B (human)
- protocolText: KINOMEscan competition binding
- appliedConditions: compound 1.0 µM
Express the result in % but write the number alone.

Recorded kinase still bound, per cent of control, per entry:
CN(C)C/C=C/C(=O)Nc1cccc(C(=O)Nc2ccc(Nc3nccc(-c4cccnc4)n3)cc2)c1	18
Cc1cc(NC(=O)c2cccc(NC(=O)/C=C/CN(C)C)c2)ccc1Nc1nccc(-c2cccnc2)n1	99
CN(C)C/C=C/C(=O)Nc1cccc(C(=O)Nc2ccc(Nc3nccc(/C(C#N)=C4\Nc5ccccc5S4)n3)cc2)c1	81

Entry under review: `CN(C)C/C=C/C(=O)Nc1cccc(C(=O)Nc2ccc(Nc3nccc(-c4c(-c5ccccc5)nn5ccccc45)n3)cc2)c1` . Reported kinase still bound, per cent of control?
100

###

Parameter: kinase still bound, per cent of control. Scope: all listed entries.
- assayedTarget: CIT (human)
- protocolText: KINOMEscan competition binding
- appliedConditions: compound 1.0 µM
Express the result in % but write the number alone.

Recorded kinase still bound, per cent of control, per entry:
CN(C)C/C=C/C(=O)Nc1cccc(C(=O)Nc2ccc(Nc3nccc(-c4c(-c5ccccc5)nn5ccccc45)n3)cc2)c1	0.3
CN(C)C/C=C/C(=O)Nc1cccc(C(=O)Nc2ccc(Nc3nccc(/C(C#N)=C4\Nc5ccccc5S4)n3)cc2)c1	65
CN(C)C/C=C/C(=O)Nc1cccc(C(=O)Nc2ccc(Nc3nccc(-c4cccnc4)n3)cc2)c1	28

State its kinase still bound, per cent of control on CIT (human): `Cc1cc(NC(=O)c2cccc(NC(=O)/C=C/CN(C)C)c2)ccc1Nc1nccc(-c2cccnc2)n1`
100

###

- assayedTarget: NEK1 (human)
- protocolText: KINOMEscan competition binding
- appliedConditions: compound 1.0 µM
Parameter: kinase still bound, per cent of control. Scope: all listed entries.
Express the result in % but write the number alone.

Recorded kinase still bound, per cent of control, per entry:
CN(C)C/C=C/C(=O)Nc1cccc(C(=O)Nc2ccc(Nc3nccc(-c4cccnc4)n3)cc2)c1	77
CN(C)C/C=C/C(=O)Nc1cccc(C(=O)Nc2ccc(Nc3nccc(/C(C#N)=C4\Nc5ccccc5S4)n3)cc2)c1	100
Cc1cc(NC(=O)c2cccc(NC(=O)/C=C/CN(C)C)c2)ccc1Nc1nccc(-c2cccnc2)n1	81

Now consider the entry below.
Entry under review: `CN(C)C/C=C/C(=O)Nc1cccc(C(=O)Nc2ccc(Nc3nccc(-c4c(-c5ccccc5)nn5ccccc45)n3)cc2)c1` . Reported kinase still bound, per cent of control?
100
